// phosphorylation enrichment lookup, one value per entry
# tested-on: FGFR3 (UniProt P22607)
# Sequence (P22607 whole entry, looked up): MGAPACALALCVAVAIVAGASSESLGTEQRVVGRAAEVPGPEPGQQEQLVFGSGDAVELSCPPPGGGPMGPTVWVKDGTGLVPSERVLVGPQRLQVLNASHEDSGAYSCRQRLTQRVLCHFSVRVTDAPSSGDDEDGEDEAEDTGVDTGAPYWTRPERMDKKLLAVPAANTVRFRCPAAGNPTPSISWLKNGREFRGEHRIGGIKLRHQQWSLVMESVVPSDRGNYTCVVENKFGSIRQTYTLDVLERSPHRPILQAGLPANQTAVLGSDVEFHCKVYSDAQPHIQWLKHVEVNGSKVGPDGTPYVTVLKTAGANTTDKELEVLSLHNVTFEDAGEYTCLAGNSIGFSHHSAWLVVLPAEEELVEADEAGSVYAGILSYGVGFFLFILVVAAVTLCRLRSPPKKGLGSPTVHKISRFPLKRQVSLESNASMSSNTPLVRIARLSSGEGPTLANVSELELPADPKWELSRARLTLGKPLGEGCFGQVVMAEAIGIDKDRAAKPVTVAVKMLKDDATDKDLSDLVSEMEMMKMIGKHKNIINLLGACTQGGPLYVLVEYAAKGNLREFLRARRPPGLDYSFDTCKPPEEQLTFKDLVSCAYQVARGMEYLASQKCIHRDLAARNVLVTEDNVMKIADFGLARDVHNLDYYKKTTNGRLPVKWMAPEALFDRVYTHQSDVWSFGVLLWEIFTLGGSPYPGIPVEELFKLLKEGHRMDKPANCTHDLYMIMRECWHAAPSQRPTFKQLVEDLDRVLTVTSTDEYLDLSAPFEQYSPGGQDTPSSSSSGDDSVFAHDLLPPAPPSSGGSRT
# test-summary: phosphorylation enrichment, bacterial display (enrichment ratio); higher = better substrate or ligand; peptides without Tyr show the background
Please state the value as a number alone, without comment.

For orientation, consider the following solved cases.
residue-sequence | tested-on | phosphorylation enrichment
RHPFFYAPELL [ALB_Y174_YF] | FGFR3 (UniProt P22607) | 0.969
YECKWYIPLTD [BCR_Y756_D752E] | FGFR3 (UniProt P22607) | 1.1
GGGMIYPLDLF | FGFR3 (UniProt P22607) | 0.637
TPRNTYKMTSL [MKI67_Y849] | FGFR3 (UniProt P22607) | 0.445
YSIAQYCCRMG [LRRK2_Y2023_G2019S] | FGFR3 (UniProt P22607) | 0.64

For the sequence SVMAEYGLYAA [VSX2_Y219_G223A] , what phosphorylation enrichment is on record?
0.632

For the sequence ILGRTHYVNHE [NEDD4_Y627_Y627H] , what phosphorylation enrichment is on record?
0.434

For the sequence TKVTFYKQPMF [GBA_Y451_D448V] , what phosphorylation enrichment is on record?
0.631

For the sequence ARVDTYCRHNY [HLA-DRB1_Y107_A103R] , what phosphorylation enrichment is on record?
0.698

For the sequence PTQLPYDHKWE [KIT_Y578] , what phosphorylation enrichment is on record?
0.696

----------
// SH2 binding enrichment lookup, one value per entry
# tested-on: Grb2 SH2 (UniProt P62993)
# Sequence (P62993 whole entry, looked up): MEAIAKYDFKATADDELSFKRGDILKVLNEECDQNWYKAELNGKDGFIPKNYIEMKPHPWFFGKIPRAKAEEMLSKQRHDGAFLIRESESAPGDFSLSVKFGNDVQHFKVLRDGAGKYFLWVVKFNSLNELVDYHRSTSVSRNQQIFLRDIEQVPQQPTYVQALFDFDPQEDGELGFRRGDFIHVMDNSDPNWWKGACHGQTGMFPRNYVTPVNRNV
# test-summary: SH2 binding enrichment of the phosphorylated peptide, bacterial display (enrichment ratio); higher = better substrate or ligand; peptides without Tyr show the background
Please state the value as a number alone, without comment.

residue-sequence | measurement-label | recorded-measurement
AKLKDYYIFNK [CCDC42_Y149] | SH2 binding enrichment | 1

For the sequence MANFVYKAGPS [MAML2_Y515_M514V_YF] , what SH2 binding enrichment is on record?
1.01

----------
# tested-on: FGFR3 (UniProt P22607)
# test-summary: phosphorylation enrichment, bacterial display (enrichment ratio); higher = better substrate or ligand; peptides without Tyr show the background
Just so you know, the groups by phosphorylation enrichment go like this: one = under 0.6, two = from 0.6 up to 0.8, three = 0.8 and over

residue-sequence | tested-on | assigned-class
EDKSIYRRGAC [PRKCI_Y125_R130C] | FGFR3 (UniProt P22607) | one
FRVDCYKNFVA [FHL1_Y213_C209R_YF] | FGFR3 (UniProt P22607) | three
GRRNTCYASIA [ACADM_Y352_Y352C] | FGFR3 (UniProt P22607) | one
GDAMLYYPSVS [GPR143_Y177_A173D] | FGFR3 (UniProt P22607) | three
GEIQEYGAPSD [ABCC1_Y1508] | FGFR3 (UniProt P22607) | two
DAHFTYSRYPW [LY75_Y888_D884A] | FGFR3 (UniProt P22607) | two

Using the reported phosphorylation enrichment, which band applies to QGGRCYMMIVD [GAA_Y438_R437C] ?
three

Using the reported phosphorylation enrichment, which band applies to TIEDSYRKQVV [KRAS_Y40] ?
one

Using the reported phosphorylation enrichment, which band applies to QSRSPYSSRHS [CDK13_Y415_R410Q] ?
one

Using the reported phosphorylation enrichment, which band applies to EIEFLYNENTV [IARS1_Y680] ?
two

Using the reported phosphorylation enrichment, which band applies to PVPKTYDMLNA [PKP2_Y108_K112N] ?
two

Using the reported phosphorylation enrichment, which band applies to VEDQYYRVDCY [FHL1_Y208_C209R] ?
three

Using the reported phosphorylation enrichment, which band applies to NRKGKYFNVER [ANAPC4_Y469] ?
one

Using the reported phosphorylation enrichment, which band applies to CEHRGFLFLAI [TEK_Y897_Y897F_YF] ?
two

Using the reported phosphorylation enrichment, which band applies to EASGIYVKSII [PATJ_Y396] ?
two

Using the reported phosphorylation enrichment, which band applies to DLDLTSIFPNI [PTEN_Y27_Y27S_YF] ?
one

Using the reported phosphorylation enrichment, which band applies to LSALDYKIFYY [WDPCP_Y210] ?
three
